# Tested on: SARS CoV-2 "South African" B.1.351 variant Spike protein
metric: stability conferred to the knob sequence by N- and C-terminal residues, in words

Sample answers from the record:
>  <sequence_content>
SVTCPDGYEHTCGCIGGCGCKRSACIGALCCQASLGGWLSDYI [G3-E]

>  <result>
improved stability

$$$$
>  <sequence_content>
LVTCPDGYEHTCGCIGGCGCKRSACIGALCCQASLGGWLSDIP [G3-G]

>  <result>
improved stability

$$$$
>  <sequence_content>
HWTCPDGYEHTCGCIGGCGCKRSACIGALCCQASLGGWLSDSF [2G3 knob HWSF]

>  <result>
improved stability

$$$$
>  <sequence_content>
GMTCPDGYEHTCGCIGGCGCKRSACIGALCCQASLGGWLSDRS [G3-Z]

>  <result>
improved stability

$$$$
>  <sequence_content>
ISTCPDGYEHTCGCIGGCGCKRSACIGALCCQASLGGWLSDTV [2G3 knob ISTV]

>  <result>
improved stability

$$$$

Pending sequence:
For the sequence shown here, DYTCPDGYEHTCGCIGGCGCKRSACIGALCCQASLGGWLSDMP [G3-C] , give the reported stability conferred to the knob sequence by N- and C-terminal residues, in words. improved stability
